# assay_target: CYP11B2 (Homo sapiens (Human))
# Sequence (P19099 25-503): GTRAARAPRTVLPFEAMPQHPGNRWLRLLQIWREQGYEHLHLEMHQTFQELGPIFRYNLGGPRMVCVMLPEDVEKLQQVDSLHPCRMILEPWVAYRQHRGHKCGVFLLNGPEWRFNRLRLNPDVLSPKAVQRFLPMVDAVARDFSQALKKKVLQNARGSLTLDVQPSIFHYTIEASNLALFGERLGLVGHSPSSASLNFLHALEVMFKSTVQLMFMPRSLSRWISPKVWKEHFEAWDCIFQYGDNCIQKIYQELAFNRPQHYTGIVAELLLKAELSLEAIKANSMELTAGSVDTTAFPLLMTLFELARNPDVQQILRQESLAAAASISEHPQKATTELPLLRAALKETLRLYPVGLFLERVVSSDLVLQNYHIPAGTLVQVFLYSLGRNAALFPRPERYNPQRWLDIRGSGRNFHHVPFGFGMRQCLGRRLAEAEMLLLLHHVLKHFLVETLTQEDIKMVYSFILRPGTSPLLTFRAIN
# assay_details: G-402 cellular enzyme assay, human CYP11B2 (aldosterone release, HTRF)
# conditions: G-402 cells expressing human CYP11B2; 1 μM Deoxycorticosterone
readout_kind: pEC50
Lab note — pEC50 values are minus log10 of concentrations in M.

Fill in: CYP11B2 (Homo sapiens (Human)) pEC50 for OC1(c2ccccc2)CCc2cncc(-c3ccc(C(F)(F)F)cc3F)c21 (single isomer, unassigned; (+)) [Example 9] = 6.13

Here OC1(c2ccccc2)CCc2cncc(-c3ccc(C(F)(F)F)c(F)c3)c21 (racemic) was tested on CYP11B2 (Homo sapiens (Human)), and its pEC50 came to 7.30

I looked up O=C(CC1CCc2cncc(-c3ccc(C(F)(F)F)c(F)c3)c21)N1CCOCC1 (racemic) and its pEC50 for CYP11B2 (Homo sapiens (Human)) was 5.99

Summary: O=C(CC1CCc2cncc(-c3ccc(C(F)(F)F)c(F)c3)c21)N1CCCCC1 (racemic) , CYP11B2 (Homo sapiens (Human)), pEC50 = 6.08

The measured pEC50 that CC1(O)CCc2cncc(-c3ccc(C(F)(F)F)c(F)c3)c21 (racemic) showed for CYP11B2 (Homo sapiens (Human)) is 7.35

# pEC50 measured on CYP11B2 (Homo sapiens (Human)) for item OC1CCc2cncc(-c3ccc(C(F)(F)F)c(F)c3)c21 (racemic) = 7.16

Reading of pEC50 for O=C(CC1CCc2cncc(-c3ccc(C(F)(F)F)c(F)c3)c21)Nc1cc[nH]n1 (racemic) with CYP11B2 (Homo sapiens (Human)): 6.22

Fill in: CYP11B2 (Homo sapiens (Human)) pEC50 for OC1(c2ccccc2)CCc2cncc(-c3ccc(C(F)(F)F)cc3F)c21 (racemic) [Example 8] = 7.48

The observed pEC50 for OC1CCc2cncc(-c3ccc(C(F)(F)F)cc3F)c21 (racemic) when tested with CYP11B2 (Homo sapiens (Human)) stands at 6.88

Tested system CYP11B2 (Homo sapiens (Human)); pEC50 recorded for CCN(C(=O)CC1CCc2cncc(-c3ccc(C(F)(F)F)cc3F)c21)C1CC1 (racemic) was 6.31
